Recorded IC50 values for a group of molecules are listed next.
- assay-system: Methionine aminopeptidase (Escherichia coli K-12)
- Sequence (P0AE18 whole entry): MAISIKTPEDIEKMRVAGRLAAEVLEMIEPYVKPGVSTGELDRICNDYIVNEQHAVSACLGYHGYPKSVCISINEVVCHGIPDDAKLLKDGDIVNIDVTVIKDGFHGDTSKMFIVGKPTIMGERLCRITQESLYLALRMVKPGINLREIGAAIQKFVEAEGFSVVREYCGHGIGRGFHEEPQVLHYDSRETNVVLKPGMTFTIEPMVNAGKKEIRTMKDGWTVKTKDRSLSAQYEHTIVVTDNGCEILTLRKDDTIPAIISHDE
- protocol-text: Inhibitory activity against Ni(II) form of Escherichia coli MetAP
Report only the number, with the unit µM understood.

Some entries whose results are on file:
> print(dat)
                                smiles.text  result.unit  recorded.value
1                 O=C(O)c1ccc(-c2ccccc2O)o1           µM             153
2  COc1ccc([N+](=O)[O-])cc1-c1ccc(C(=O)O)o1           µM            34.5

With those in mind, consider the next molecule.
Input line: Reported IC50 for Cc1cc([N+](=O)[O-])ccc1-c1ccc(C(=O)O)o1 : what is it?
Output line: 28.5

Values were extracted from ChEMBL document CHEMBL1141959.
